Target: SARS-CoV-2 3CLpro (Severe acute respiratory syndrome coronavirus 2)
Assay: biochemical
Format: biochemical
Conditions: read-out: Inhibition (%) @10 μM
// label 0 strictly below 10% in inhibition at 10 µM; label 1 otherwise

COc1ccc(-c2coc3cc(O)ccc3c2=O)cc1 ... label 1

Query :: Test whether the compound O=c1cc(-c2ccc(O)cc2)oc2cc(O)cc(O)c12 records inhibition at 10 µM of 10% or higher.
Result :: label 0

Query :: For O=c1c(O)c(-c2cc(O)c(O)c(O)c2)oc2cc(O)cc(O)c12 [myricetin, 3,5,7,3′,4′,5′-hexahydroxyflavone] then?
Result :: label 1

Query :: For COc1cc(-c2oc3cc(O)cc(O)c3c(=O)c2O)ccc1O then?
Result :: label 0

Query :: For COc1ccc(-c2cc(=O)c3c(O)cc(O)cc3o2)cc1O then?
Result :: label 1

* * *

Items are presented alongside their recorded inhibition at 10 µM.
Molecular target: SARS-CoV-2 3CLpro (Severe acute respiratory syndrome coronavirus 2, UniProt P0DTD1)
Assay: biochemical
Type: biochemical
Settings: read-out: Inhibition (%) @10 μM
Write down the numeric answer in % and omit the unit.

COc1ccc(-c2oc3cc(O)cc(O)c3c(=O)c2O)cc1 [Kaempferide] ... 8.1
COc1ccc([C@@H]2CC(=O)c3c(O)cc(O)cc3O2)cc1O ... 13.8
O=C1C[C@@H](c2ccc(O)c(O)c2)Oc2cc(O)cc(O)c21 ... 34.5
O=c1c(O)c(-c2ccc(O)c(O)c2)oc2cc(O)cc(O)c12 ... 41.3
O=c1c(-c2ccc(O)cc2)coc2cc(O)cc(O)c12 ... 15
O=C1c2c(O)cc(O)cc2O[C@H](c2cc(O)c(O)c(O)c2)[C@H]1O [dihydromyricetin] ... 93.8
O=c1c(-c2ccc(O[C@@H]3O[C@H](CO)[C@@H](O)[C@H](O)[C@H]3O)cc2)coc2cc(O)cc(O)c12 [Sophoricoside] ... 10
O=c1c(-c2ccc(O)cc2)coc2cc(O[C@@H]3O[C@H](CO)[C@@H](O)[C@H](O)[C@H]3O)cc(O)c12 ... 25.5

Turning to the following compound.
Query :: Sample O=C1c2c(O)cc(O)cc2OC(c2ccc(O)c(O)c2)C1O (stereo not drawn) — what was its inhibition at 10 µM?
Result :: 28

From: paper PMC8206078
